B1: library; a variant is named by its letters at N, in order (parent)
chain: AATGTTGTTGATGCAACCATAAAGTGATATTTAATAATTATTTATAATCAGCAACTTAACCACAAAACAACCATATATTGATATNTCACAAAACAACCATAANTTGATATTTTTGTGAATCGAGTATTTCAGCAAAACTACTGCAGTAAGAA

Variants of: B1
Test: relative integration efficiency (T-LR orientation) vs wild-type transposon end (log2 (normalized fold change)); transposon end mutated: left end; higher = more efficient transposition
Settings: with VchCAST RNA-guided transposition machinery (E. coli BL21(DE3) host, lacZ target)
Items are presented alongside their recorded relative integration efficiency (log2).
Could you respond with only the numeric value?

CG A23C G24T ... -0.153
CG T113G T114G ... -0.0365
CG G51C C52G A53T A54T ... -0.796
CG T48A ... 0.212
TG A16C G24T T32G A33C T76A A77G C87T ... -0.184

Query string: Annotate the variant CG C71A C72A A73C T74G with its measured relative integration efficiency (log2).
Result string: -2.28

Query string: Annotate the variant CG A90T A91T with its measured relative integration efficiency (log2).
Result string: 0.245

Query string: Annotate the variant CG A37T T38A with its measured relative integration efficiency (log2).
Result string: 0.156

Query string: Annotate the variant CG T104G T105G with its measured relative integration efficiency (log2).
Result string: -1.76

Query string: Annotate the variant CG T100C with its measured relative integration efficiency (log2).
Result string: -2.04

Query string: Annotate the variant CG A16C G24T T30A with its measured relative integration efficiency (log2).
Result string: -0.135

Query string: Annotate the variant TA A23G G24T A33T T76A A77G C87T A102T T111C T113C with its measured relative integration efficiency (log2).
Result string: -0.439

Query string: Annotate the variant CT A102C with its measured relative integration efficiency (log2).
Result string: -1.29

Hello, the source for this data is the supplement of paper PMC10201428, in case you need it.
